Target Of Assay: Phosphatidylinositol 4,5-bisphosphate 3-kinase catalytic subunit delta isoform (Homo sapiens)
Sequence (O00329 whole entry, canonical isoform): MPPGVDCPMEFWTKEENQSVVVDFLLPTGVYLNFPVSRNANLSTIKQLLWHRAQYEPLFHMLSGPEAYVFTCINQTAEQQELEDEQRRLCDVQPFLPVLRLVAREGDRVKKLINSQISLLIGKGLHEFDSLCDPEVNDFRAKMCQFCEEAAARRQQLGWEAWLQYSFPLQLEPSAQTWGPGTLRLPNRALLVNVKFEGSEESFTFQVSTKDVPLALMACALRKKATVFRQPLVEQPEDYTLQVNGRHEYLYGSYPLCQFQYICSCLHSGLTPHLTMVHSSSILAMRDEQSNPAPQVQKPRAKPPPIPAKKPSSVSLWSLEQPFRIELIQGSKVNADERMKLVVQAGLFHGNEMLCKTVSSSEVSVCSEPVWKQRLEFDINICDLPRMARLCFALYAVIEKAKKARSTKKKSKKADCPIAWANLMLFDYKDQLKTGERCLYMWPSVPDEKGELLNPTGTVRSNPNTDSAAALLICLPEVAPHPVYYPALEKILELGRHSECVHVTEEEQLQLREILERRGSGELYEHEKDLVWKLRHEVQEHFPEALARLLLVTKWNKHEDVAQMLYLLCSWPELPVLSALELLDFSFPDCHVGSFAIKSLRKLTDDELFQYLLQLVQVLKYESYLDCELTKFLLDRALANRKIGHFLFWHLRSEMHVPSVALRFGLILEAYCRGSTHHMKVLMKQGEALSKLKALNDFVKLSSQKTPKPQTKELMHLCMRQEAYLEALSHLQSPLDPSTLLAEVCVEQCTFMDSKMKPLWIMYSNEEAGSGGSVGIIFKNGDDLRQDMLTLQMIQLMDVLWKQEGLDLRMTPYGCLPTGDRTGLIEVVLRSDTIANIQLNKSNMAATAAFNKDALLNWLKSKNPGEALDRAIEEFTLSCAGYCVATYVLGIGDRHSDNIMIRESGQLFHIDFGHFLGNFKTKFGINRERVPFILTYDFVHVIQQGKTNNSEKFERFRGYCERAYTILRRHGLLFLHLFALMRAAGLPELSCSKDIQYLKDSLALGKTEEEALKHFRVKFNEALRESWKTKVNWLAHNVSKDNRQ
Method Notes: Inhibition of PI3Kdelta (unknown origin) using PIP2 as substrate measured after 1 hr by ADP-glo plus luminescence assay
pIC50: −log10 of the molar value.
Endpoint Label: pIC50

1. O=C(Cc1nnc(-c2ccc3ncccc3c2)o1)NCCc1ccc(Cl)cc1: 4.78
2. COc1ccc(CNC(=O)Cc2nnc(-c3ccc4ncccc4c3)o2)cc1OC: 4.85

---

Target Of Assay: Phosphatidylinositol 4,5-bisphosphate 3-kinase catalytic subunit gamma isoform (Homo sapiens)
Sequence (P48736 whole entry, canonical isoform): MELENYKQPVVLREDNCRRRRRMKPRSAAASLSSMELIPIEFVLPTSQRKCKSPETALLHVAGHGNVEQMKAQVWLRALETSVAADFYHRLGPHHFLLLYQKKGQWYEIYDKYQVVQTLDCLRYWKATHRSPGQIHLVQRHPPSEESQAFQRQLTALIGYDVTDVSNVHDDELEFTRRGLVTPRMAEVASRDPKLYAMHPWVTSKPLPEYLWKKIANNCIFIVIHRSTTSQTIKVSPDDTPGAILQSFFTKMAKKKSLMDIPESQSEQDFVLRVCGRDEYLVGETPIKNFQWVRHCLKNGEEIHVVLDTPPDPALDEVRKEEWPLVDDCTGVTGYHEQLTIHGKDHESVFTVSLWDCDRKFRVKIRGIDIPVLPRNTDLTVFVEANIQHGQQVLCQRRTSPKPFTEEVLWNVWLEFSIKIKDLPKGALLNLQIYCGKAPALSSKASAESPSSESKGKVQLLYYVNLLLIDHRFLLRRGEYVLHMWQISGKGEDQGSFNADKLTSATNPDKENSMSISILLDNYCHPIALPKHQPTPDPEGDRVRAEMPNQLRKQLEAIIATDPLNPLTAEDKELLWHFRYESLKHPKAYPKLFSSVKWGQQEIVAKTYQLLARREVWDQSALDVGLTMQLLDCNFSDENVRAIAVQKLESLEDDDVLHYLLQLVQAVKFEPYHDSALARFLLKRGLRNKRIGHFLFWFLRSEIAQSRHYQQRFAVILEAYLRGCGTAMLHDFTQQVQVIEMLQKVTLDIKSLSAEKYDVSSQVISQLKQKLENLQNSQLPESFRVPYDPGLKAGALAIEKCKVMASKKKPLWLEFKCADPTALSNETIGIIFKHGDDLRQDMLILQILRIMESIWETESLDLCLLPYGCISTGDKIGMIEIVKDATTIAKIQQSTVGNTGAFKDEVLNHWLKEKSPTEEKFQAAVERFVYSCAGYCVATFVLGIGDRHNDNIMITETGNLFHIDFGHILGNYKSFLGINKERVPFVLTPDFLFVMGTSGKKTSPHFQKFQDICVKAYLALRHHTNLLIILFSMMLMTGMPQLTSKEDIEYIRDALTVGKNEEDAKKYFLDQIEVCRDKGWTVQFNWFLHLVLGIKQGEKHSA
Method Notes: Inhibition of PI3Kgamma (unknown origin) using PIP2 as substrate measured after 1 hr by ADP-glo plus luminescence assay
pIC50: −log10 of the molar value.
Endpoint Label: pIC50

1) O=C(Cc1nnc(-c2ccc3ncccc3c2)o1)NCCc1ccc(Cl)cc1: 5.01
2) COc1ccc(CNC(=O)Cc2nnc(-c3ccc4ncccc4c3)o2)cc1OC: 3.82

---

Target Of Assay: Phosphatidylinositol 4,5-bisphosphate 3-kinase catalytic subunit beta isoform (Homo sapiens)
Sequence (P42338 whole entry, canonical isoform): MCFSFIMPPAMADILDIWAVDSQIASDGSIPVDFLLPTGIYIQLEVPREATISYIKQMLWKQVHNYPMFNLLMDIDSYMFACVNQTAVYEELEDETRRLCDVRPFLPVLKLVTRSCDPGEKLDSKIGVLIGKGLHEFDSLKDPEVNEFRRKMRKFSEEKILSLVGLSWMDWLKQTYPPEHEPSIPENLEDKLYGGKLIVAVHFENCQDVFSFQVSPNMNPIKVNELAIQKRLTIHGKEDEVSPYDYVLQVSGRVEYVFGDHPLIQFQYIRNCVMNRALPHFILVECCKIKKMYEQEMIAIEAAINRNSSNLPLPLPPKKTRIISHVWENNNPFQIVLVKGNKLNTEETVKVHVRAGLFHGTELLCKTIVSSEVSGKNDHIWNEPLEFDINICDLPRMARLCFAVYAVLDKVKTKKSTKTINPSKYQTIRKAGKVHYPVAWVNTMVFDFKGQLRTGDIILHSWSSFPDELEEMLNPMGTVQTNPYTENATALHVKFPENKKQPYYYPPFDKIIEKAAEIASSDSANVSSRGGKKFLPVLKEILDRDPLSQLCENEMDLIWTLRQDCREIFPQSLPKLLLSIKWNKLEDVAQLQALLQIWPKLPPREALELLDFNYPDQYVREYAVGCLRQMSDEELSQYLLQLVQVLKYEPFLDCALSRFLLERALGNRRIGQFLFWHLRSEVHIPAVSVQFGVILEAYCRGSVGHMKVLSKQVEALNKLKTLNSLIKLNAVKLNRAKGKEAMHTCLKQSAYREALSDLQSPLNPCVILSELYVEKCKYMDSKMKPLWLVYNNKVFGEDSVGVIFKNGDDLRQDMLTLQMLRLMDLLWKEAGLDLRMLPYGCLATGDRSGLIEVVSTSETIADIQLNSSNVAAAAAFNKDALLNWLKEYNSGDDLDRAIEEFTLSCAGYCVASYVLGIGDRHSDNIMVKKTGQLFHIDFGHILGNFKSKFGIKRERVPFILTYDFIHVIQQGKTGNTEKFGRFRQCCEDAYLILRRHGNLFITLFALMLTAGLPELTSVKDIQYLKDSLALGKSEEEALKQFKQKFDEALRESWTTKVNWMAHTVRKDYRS
Method Notes: Inhibition of PI3Kbeta (unknown origin) using PIP2 as substrate measured after 1 hr by ADP-glo plus luminescence assay
pIC50: −log10 of the molar value.
pIC50 for assorted compounds
Endpoint Label: pIC50

1) O=C(Cc1nnc(-c2ccc3ncccc3c2)o1)NCCc1ccc(Cl)cc1: 5.59
2) COc1ccc(CNC(=O)Cc2nnc(-c3ccc4ncccc4c3)o2)cc1OC: 5.39

---

Target Of Assay: Phosphatidylinositol 4,5-bisphosphate 3-kinase catalytic subunit alpha isoform (Homo sapiens, UniProt P42336)
Sequence (P42336 whole entry, canonical isoform): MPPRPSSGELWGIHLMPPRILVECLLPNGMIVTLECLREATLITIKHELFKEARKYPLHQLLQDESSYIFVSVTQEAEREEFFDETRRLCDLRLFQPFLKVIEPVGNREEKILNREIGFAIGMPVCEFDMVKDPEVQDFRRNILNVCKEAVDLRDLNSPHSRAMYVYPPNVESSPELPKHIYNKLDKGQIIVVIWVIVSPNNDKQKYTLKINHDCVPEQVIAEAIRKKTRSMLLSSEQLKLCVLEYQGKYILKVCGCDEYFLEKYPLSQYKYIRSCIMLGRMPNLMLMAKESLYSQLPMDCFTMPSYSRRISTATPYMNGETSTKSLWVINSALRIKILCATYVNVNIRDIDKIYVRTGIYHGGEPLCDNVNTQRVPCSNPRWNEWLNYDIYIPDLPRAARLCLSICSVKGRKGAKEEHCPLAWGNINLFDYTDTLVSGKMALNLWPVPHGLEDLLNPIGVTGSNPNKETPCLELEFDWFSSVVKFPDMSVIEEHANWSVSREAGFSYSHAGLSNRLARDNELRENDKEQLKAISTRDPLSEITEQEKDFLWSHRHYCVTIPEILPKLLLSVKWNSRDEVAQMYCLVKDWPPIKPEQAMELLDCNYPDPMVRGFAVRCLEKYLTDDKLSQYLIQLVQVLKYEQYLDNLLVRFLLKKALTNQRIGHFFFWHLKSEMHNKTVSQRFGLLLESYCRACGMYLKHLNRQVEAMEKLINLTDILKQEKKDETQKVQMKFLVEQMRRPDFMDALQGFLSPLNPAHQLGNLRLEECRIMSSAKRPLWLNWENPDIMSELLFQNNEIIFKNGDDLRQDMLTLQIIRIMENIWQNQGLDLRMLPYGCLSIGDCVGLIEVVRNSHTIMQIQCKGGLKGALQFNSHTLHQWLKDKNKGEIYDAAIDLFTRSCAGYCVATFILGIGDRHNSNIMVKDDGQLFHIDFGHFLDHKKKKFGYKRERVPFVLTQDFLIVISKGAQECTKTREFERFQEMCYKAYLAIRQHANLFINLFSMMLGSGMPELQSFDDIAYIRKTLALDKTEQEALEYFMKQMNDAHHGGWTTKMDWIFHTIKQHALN
Method Notes: Inhibition of PI3Kalpha (unknown origin) using PIP2 as substrate measured after 1 hr by ADP-glo plus luminescence assay
Endpoint Label: IC50

1) O=C(Cc1nnc(-c2ccc3ncccc3c2)o1)Nc1ccc(OC(F)(F)F)cc1: > 200 µM
2) O=C(Cc1nnc(-c2ccc3c(c2)OCO3)o1)NCc1ccc(F)cc1: > 200 µM
3) O=C(Cc1nnc(-c2ccc3ncccc3c2)o1)NCc1ccc(F)cc1Cl: 15.6 µM
4) COc1ccc(NC(=O)Cc2nnc(-c3ccc4ncccc4c3)o2)cc1OC: > 200 µM
5) O=C(Cc1nnc(-c2ccc3ncccc3c2)o1)N1CCN(c2ccccc2)CC1: > 200 µM
6) COc1ccccc1CNC(=O)Cc1nnc(-c2ccc3ncccc3c2)o1: 18.3 µM
7) O=C(Cc1nnc(-c2ccccn2)o1)NCc1ccc(F)cc1Cl: > 200 µM
8) CC(C)NC(=O)CSc1nc(-c2ccc3c(c2)OCO3)nc2cc(=O)[nH]n12: 17 µM

---

Target Of Assay: Phosphatidylinositol 4,5-bisphosphate 3-kinase catalytic subunit alpha isoform (Homo sapiens)
Method Notes: Inhibition of PI3Kalpha (unknown origin) using PIP2 as substrate measured after 1 hr by ADP-glo plus luminescence assay
pIC50: −log10 of the molar value.
Endpoint Label: pIC50

1) O=C(Cc1nnc(-c2ccc3ncccc3c2)o1)NCCc1ccccc1: 4.53
2) O=C(Cc1nnc(-c2ccc3ncccc3c2)o1)NCCc1ccc(Cl)cc1: 5.18
3) COc1ccc(CNC(=O)Cc2nnc(-c3ccc4ncccc4c3)o2)cc1OC: 5.12
